Reported z-score values for a set of molecules
# Assay text: basal RPMI8226 viability, no added stimulus, profiling panel, cell-based, calcein-AM fluorescence, 48 h, PK04 Diversity Set (AID 1166);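 further: cells grown under basal conditions without added stimulus; test concentration not given here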
# Experimental setup: RPMI8226 myeloma viability, higher = more signal

- Molecule: "C=CC[C@]1(C(=O)O)COC(c2ccc(OCCCO)cc2)=N1"
  z-score: -0.571
- Molecule: "CCOC(=O)C[C@H]1[C@H](OC(=O)c2ccccc2-c2ccccc2)[C@@H](NC(=O)C2CCCCC2)c2cc(OCCCO)ccc2N1C(=O)Cc1ccc(OC)cc1"
  z-score: -0.593
- Molecule: "COC(=O)[C@@]1(Cc2ccc(F)cc2)[C@H]2c3cc(C(=O)N(C)C)n(CCc4ccc(O)c(OC)c4)c3C[C@H]2CN1C(=O)c1ccccc1"
  z-score: -0.364
- Molecule: "COc1ccc(CCN2C(=O)[C@@]3(Cc4ccccc42)c2ccccc2C(=O)N(Cc2ccccc2OC)[C@H]3c2ccc(CO)cc2)cc1"
  z-score: -0.996
- Molecule: "CC(C)(C)N1CC=CC23O[C@@H]4C=CCOC(=O)[C@@H]4[C@H]2C(=O)N(CCCCCCO)[C@@H]3C1=O (some centres not stated)"
  z-score: 0.0749
- Molecule: "C=C(C)[C@@H]1CC=C(C(O)C2C=CC3C(=O)N(c4ccccc4)C(=O)C3N2Nc2ccccc2F)CC1 (some centres not stated)"
  z-score: 0.123
- Molecule: "CC[C@H]1C2=C3C(CC[C@H]4C(OCc5ccc(F)cc5C(F)(F)F)OC[C@](C)([C@@H]34)N(C(=O)OC(C)(C)C)C2)C(COC)C1COC (some centres not stated)"
  z-score: -0.307

Measured values drawn from PubChem BioAssay for this set.
